# system.name: FGFR2 (h) (Homo sapiens)
# Sequence (P21802 22-821): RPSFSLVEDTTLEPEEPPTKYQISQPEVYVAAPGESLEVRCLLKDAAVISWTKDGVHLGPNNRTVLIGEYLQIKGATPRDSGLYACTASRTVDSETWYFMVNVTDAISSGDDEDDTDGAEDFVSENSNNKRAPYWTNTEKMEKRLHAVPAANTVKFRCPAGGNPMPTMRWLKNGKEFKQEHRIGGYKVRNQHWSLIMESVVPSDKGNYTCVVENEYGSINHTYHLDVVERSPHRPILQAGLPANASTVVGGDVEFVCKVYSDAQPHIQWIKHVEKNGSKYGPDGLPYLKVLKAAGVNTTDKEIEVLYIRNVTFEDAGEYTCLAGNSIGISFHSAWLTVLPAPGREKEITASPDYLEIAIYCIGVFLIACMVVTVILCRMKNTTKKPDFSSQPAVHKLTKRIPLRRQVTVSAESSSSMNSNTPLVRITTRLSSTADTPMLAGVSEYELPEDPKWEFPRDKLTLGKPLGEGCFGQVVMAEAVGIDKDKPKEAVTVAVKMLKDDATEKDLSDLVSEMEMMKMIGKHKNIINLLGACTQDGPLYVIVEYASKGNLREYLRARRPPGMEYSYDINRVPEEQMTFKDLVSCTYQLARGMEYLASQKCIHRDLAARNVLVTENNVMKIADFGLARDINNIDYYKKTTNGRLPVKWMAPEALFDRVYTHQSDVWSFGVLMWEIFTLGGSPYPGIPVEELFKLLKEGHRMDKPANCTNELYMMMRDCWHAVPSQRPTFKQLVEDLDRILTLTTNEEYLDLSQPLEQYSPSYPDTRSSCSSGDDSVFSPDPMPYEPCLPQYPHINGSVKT
# test.details: FGFR2 (enzymatic assay), TR-FRET
# Type: biochemical
# cond: 0.4 μM ATP; pIC50 = -log IC50 (M); read-out: FGFR 2 pIC50 (converted)
observed.property: IC50 (M)
Write the value in M as a bare number.

Worked set:
>>> print(df.to_string())
                           molecular_string  test_result
0  COc1cc(OC)c(Cl)c(N(CCO)c2ccc3ncn(-c4ccccc4)c(=O)c3c2)c1Cl     3.98e-08
1  COc1cc(OC)c(F)c(N(Cc2ncc[nH]2)c2ccc3ncn(-c4ccccc4)c(=O)c3c2)c1F     1.26e-08
2  COc1cc(OC)c(F)c(N(CCO)c2ccc3ncn(-c4ccccc4)c(=O)c3c2)c1F     6.31e-09

Q: Need IC50 of `COc1cc(OC)c(Cl)c(N(CCO)c2ccc3ncn(-c4cnn(C)c4)c(=O)c3c2)c1Cl` , thanks.
A: 1.58e-08

Q: Need IC50 of `COc1cc(OC)c(F)c(N(CCO)c2ccc3ncn(-c4ccccc4)c(=O)c3c2)c1` , thanks.
A: 5.01e-08

Hello, the source for this data is patent US9493426B2, in case you need it.
